Data provenance is ChEMBL document CHEMBL4689842.

test system: HEK-293T; assay: Multiplex assay against HEK293T; type: toxicity, cell-based; conditions: human, 24 h, 1 µM, compound concentration 1 uM, replicate 2
observed property: Population Normal (%)

# compound, observed property, data value
rows = [
    ("COc1cc(-n2cnc3cc(-c4ccc(Cl)cc4)sc3c2=O)ccc1OCCN1CCCC1", "Population Normal (%)", 97),
    ("C=CC(=O)Nc1cc2c(Nc3ccc(F)c(Cl)c3)ncnc2cc1OCCCN1CCOCC1.Cl.Cl [CANERTINIB DIHYDROCHLORIDE]", "Population Normal (%)", 89),
    ("COc1cccc([C@@H](C)NCCCc2ccccc2Cl)c1.Cl [TECALCET HYDROCHLORIDE]", "Population Normal (%)", 97),
    ("c1cn2cc(-c3ccc4cn[nH]c4c3)nc(Nc3ccc(N4CCOCC4)cc3)c2n1", "Population Normal (%)", 97),
    ("Cn1cc(-c2[nH]c3cc(NC(=O)[C@H](N)C4CCCCC4)cc4c3c2C=NNC4=O)cn1", "Population Normal (%)", 90),
]

###

Here the recorded Population Fragmented Nuclei (%) is given for each entry.
system: HEK-293T; test: Multiplex assay against HEK293T; assay type: toxicity, cell-based; settings: human, 12 h, 1 µM, compound concentration 1 uM, replicate 2

# molecule, Population Fragmented Nuclei (%)
rows = [
    ("CNc1nc(NCc2ccc(NS(C)(=O)=O)cc2Cl)cc(-c2ccccn2)n1", 6),
    ("Cl.N#Cc1ccc2[nH]cc(CCCCN3CCN(c4ccc5oc(C(N)=O)cc5c4)CC3)c2c1 [VILAZODONE HYDROCHLORIDE]", 6),
    ("NC(=O)Nc1cc(-c2cccc(F)c2)sc1C(=O)N[C@H]1CCCNC1 [AZD-7762]", 6),
    ("CN(C)C(=O)/C(C#N)=C/c1ccc(-c2nc3cnc4[nH]ccc4c3n2C2CCCCC2)o1", 6),
    ("CN1CCCC(n2nc(Cc3ccc(Cl)cc3)c3ccccc3c2=O)CC1.Cl (centres undefined) [AZELASTINE HYDROCHLORIDE]", 6),
    ("Cc1csc2c(N[C@@H](C)CN3CCN(S(=O)(=O)c4ccc(Cl)c(Cl)c4)CC3)ncnc12", 5),
    ("CC(C)(O)CNc1ncc(-c2ccnc(Nc3ccnc(Cl)c3)n2)c(CC2CC2)n1", 9),
    ("CN(C)CC#Cc1ccc(OCCCc2sc(N3CCc4cccc(C(=O)Nc5nc6ccccc6s5)c4C3)nc2C(=O)O)c(F)c1 [A-1155463]", 4),
    ("CC[C@H](C)C(=O)O[C@H]1C[C@@H](C)C=C2C=C[C@H](C)[C@H](CC[C@@H]3C[C@@H](O)CC(=O)O3)[C@H]21 [LOVASTATIN]", 4),
]

###

tested on: U2OS; test: Incucyte cell viability with U2OS; format: toxicity, cell-based; settings: human, 0 h, 10 µM, compound concentration 10 uM, replicate number 1, timepoint 0 hours; further: filed as whole numbers so only -1 and 0 and 1 occur

# substance smiles, Growth Rate
rows = [
    ("CN(C)C(=O)c1ccc(-c2cc(C(=O)N[C@@H]3CCc4ccccc43)no2)cc1O", 0),
    ("Cc1cc(F)c(C(=O)Nc2cccc(-c3nncn3C(C)C)n2)cc1-n1cnc(C2CC2)c1", 0),
    ("COc1ncc(-c2ccc3nccc(-c4ccnnc4)c3c2)cc1NS(=O)(=O)c1ccc(F)cc1F", 1),
    ("CCOCCn1cc(C(=O)Nc2ccc(-n3nc(-c4cccnc4)cc3C(F)(F)F)cn2)ccc1=O", 0),
    ("C[C@H](Cc1cc2c(c(C(N)=O)c1)N(CCCO)CC2)NCCOc1ccccc1OCC(F)(F)F", 0),
    ("CC(C)S(=O)(=O)c1ccc2nccc(Nc3ccc4scnc4c3)c2c1", 1),
]
